Target: Human Cbl-b (residues 40-426) (Homo sapiens (Human))
Sequence (Q13191 40-426): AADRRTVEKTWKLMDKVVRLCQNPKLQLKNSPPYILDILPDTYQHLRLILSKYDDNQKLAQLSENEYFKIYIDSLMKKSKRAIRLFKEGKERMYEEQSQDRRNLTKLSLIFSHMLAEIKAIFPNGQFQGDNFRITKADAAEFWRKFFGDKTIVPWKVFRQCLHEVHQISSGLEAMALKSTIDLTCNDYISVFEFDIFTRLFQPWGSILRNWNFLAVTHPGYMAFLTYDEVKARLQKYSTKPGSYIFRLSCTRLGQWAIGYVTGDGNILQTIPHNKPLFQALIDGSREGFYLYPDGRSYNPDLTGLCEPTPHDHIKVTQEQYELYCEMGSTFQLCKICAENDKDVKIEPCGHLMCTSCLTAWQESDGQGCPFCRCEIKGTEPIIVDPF
Test: Cbl-b SPR assay
Format: binding
Conditions: C-cbl SPR Kd vs Cbl-b SPR Kd
For each entry below, report its Fold of selectivity value.
Numeric only. Scale: ×

Return value of Fold of selectivity for input Cn1cnnc1[C@@H](c1cccc(N2Cc3c(cc(CNC4(C)CCC4)cc3C(F)(F)F)C2=O)c1)[C@H]1C[C@@H](C#N)C1 (single isomer, unassigned) , no commentary. 0.88

Look up and state reported Fold of selectivity for CO[C@](c1cccc(N2Cc3c(cc(CNC4(C)CCC4)cc3C(F)(F)F)C2=O)c1)(c1nncn1C)C1CCC1 (single isomer, unassigned) 3.0

Give Fold of selectivity for `Cn1cnnc1[C@]1(c2cc(NC3CCC3)nc(N3Cc4c(cc(CNC5(C)CCC5)cc4C(F)(F)F)C3=O)c2)C[C@@H](C)C1` 4.3
